Kindly supply the reported self-cleavage values for the records listed here.
B1: LINE1-full (parent)
chain: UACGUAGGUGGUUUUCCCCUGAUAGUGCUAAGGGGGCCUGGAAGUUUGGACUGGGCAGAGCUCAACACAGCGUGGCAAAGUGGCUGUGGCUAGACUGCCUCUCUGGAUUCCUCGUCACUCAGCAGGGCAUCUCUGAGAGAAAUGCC

Variants of: B1
Assay: self-cleavage, relative activity (ratio to wild type); higher = more cleavage; in vitro, sequencing; the parent is a self-cleaving ribozyme
One number for each entry.

1) U13A U115G ... 1.29
2) U9A U143C ... 0.94
3) A67U A117U ... 0.1
4) U39G U115A ... 1.31
5) A22G G125A ... 1.9
6) G53A U134G ... 0.56

Batch of 8 variants: report self-cleavage for each.
1. G75A A79G
2. U47C U130C
3. C28A U134C
4. U91C A124U
5. U62A A77G
6. G80A A107G
7. G25A U26A
8. U46A U73A

Response:
[0.83, 1.63, 1.92, 0, 0.07, 2.12, 1.07, 1.35]

Batch of 4 variants: report self-cleavage for each.
1. U13C G122U
2. U62C U130A
3. A117C U134A
4. U12C G75A

Response:
1.02
0.07
1.53
1.46

Batch of 6 variants: report self-cleavage for each.
1. C101A
2. U115C U143G
3. A42G G48A
4. A69G G86A
5. U91A A94G
6. A24G A50U

Response:
[1.38, 2.45, 0.85, 0.03, 0.09, 1.55]

Where these numbers come from: the RNAGym collection of RNA variant scans (doi:10.7554/elife.90254)
